target: IgG receptor FcRn large subunit p51 (Homo sapiens); assay: Inhibition of human IgG binding to soluble human FcRn by ELISA
Sequence (P55899 whole entry): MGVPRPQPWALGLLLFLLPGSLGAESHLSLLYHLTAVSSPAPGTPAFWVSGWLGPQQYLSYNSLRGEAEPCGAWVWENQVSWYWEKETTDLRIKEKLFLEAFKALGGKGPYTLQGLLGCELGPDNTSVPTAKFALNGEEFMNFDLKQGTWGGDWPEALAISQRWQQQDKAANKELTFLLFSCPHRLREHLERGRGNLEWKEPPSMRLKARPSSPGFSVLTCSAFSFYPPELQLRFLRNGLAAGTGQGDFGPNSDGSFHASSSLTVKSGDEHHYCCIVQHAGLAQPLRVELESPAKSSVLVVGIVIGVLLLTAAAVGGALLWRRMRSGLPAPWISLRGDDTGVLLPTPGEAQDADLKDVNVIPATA
Peptide text beside a SMILES is read from it.
observation-type: pIC50
pIC50 is defined as minus the log10 of a concentration measured in mol/L.

Example entries and their recorded answers appear below.
CC(C)C[C@H](NC(=O)[C@@H](C)NC(=O)[C@@H](C)NC(=O)[C@H](Cc1ccccc1)NC(=O)[C@H](Cc1cnc[nH]1)NC(=O)CNC(=O)[C@@H](NC(=O)[C@H](CS)NC(=O)[C@H](Cc1ccccc1)NC(=O)[C@H](CCCN=C(N)N)NC(=O)[C@@H](N)CCC(N)=O)[C@@H](C)O)C(=O)N[C@@H](Cc1ccc(O)cc1)C(=O)N1CCC[C@H]1C(=O)N[C@@H](CS)C(=O)N[C@@H](CC(N)=O)C(=O)NCC(=O)N1CCC[C@H]1C(=O)O	4.16
CC(C)C[C@H](NC(=O)CNC(=O)CNC(=O)[C@H](Cc1ccc2ccccc2c1)NC(=O)[C@H](Cc1cnc[nH]1)NC(=O)CNC(=O)[C@@H](NC(=O)[C@@H](NC(=O)[C@H](Cc1ccccc1)NC(=O)[C@H](CCCN=C(N)N)NC(=O)[C@@H](N)CCC(N)=O)C(C)(C)S)[C@@H](C)O)C(=O)N[C@@H](Cc1ccc(O)cc1)C(=O)N1CCC[C@H]1C(=O)N[C@@H](CS)C(=O)N[C@@H](CC(N)=O)C(=O)NCC(=O)N1CCC[C@H]1C(=O)O	4.05
CC(C)C[C@@H](C(=O)N[C@@H](Cc1ccc(O)cc1)C(=O)N1CCC[C@H]1C(=O)N[C@@H](CS)C(=O)O)N1CC[C@H](NC(=O)CNC(=O)[C@H](Cc2ccccc2)NC(=O)[C@H](Cc2cnc[nH]2)NC(=O)CNC(=O)[C@@H](NC(=O)[C@@H](NC(=O)[C@H](Cc2ccccc2)NC(=O)[C@@H](N)CCCNC(=N)N)C(C)(C)S)[C@@H](C)O)C1=O	4.72
CC(C)C[C@H](NC(=O)CNC(=O)CNC(=O)[C@H](Cc1ccccc1)NC(=O)[C@H](Cc1cnc[nH]1)NC(=O)CNC(=O)[C@@H](NC(=O)[C@H](CS)NC(=O)[C@H](C)NC(=O)[C@H](CCCN=C(N)N)NC(=O)[C@@H](N)CCC(N)=O)[C@@H](C)O)C(=O)N[C@@H](Cc1ccc(O)cc1)C(=O)N1CCC[C@H]1C(=O)N[C@@H](CS)C(=O)N[C@@H](CC(N)=O)C(=O)NCC(=O)N1CCC[C@H]1C(=O)O (H-QRACTGHFGGLYPCNGP-OH)	4.02

Shifting focus to the compound that follows.
Briefly, pIC50 measured for CC(C)C[C@H](NC(=O)CNC(=O)CNC(=O)[C@H](Cc1cccc(Cl)c1)NC(=O)[C@H](Cc1cnc[nH]1)NC(=O)CNC(=O)[C@@H](NC(=O)[C@@H](NC(=O)[C@H](Cc1ccccc1)NC(=O)[C@H](CCCNC(=N)N)NC(=O)[C@@H](N)CCC(N)=O)C(C)(C)S)[C@@H](C)O)C(=O)N[C@@H](Cc1ccc(O)cc1)C(=O)N1CCC[C@H]1C(=O)N[C@@H](CS)C(=O)O : 5.43

====

target: IgG receptor FcRn large subunit p51 (Homo sapiens); experiment: Inhibition of human IgG binding to soluble human FcRn by ELISA
Bridge positions count the residues as written; N and C are the ends. Peptide text beside a SMILES is read from it.
Below, each entry is listed alongside its reported IC50.
Give a bare numeral; the unit µM is implied.

The cases that follow already have their IC50 on record.
CC(C)C[C@H](NC(=O)CNC(=O)CNC(=O)[C@H](Cc1ccccc1)NC(=O)[C@H](Cc1cnc[nH]1)NC(=O)CNC(=O)[C@@H](NC(=O)[C@@H](N)CS)[C@@H](C)O)C(=O)N[C@@H](Cc1ccc(O)cc1)C(=O)N1CCC[C@H]1C(=O)N[C@@H](CS)C(=O)N[C@@H](CC(N)=O)C(=O)NCC(=O)N1CCC[C@H]1C(=O)O (H-CTGHFGGLYPCNGP-OH)	239
CC(C)C[C@@H](C(=O)N[C@@H](Cc1ccc(O)cc1)C(=O)N1CCC[C@H]1C(=O)N[C@@H](CS)C(=O)O)N(C)C(=O)CNC(=O)CNC(=O)[C@H](Cc1ccccc1)NC(=O)[C@H](Cc1cnc[nH]1)NC(=O)CNC(=O)[C@@H](NC(=O)[C@@H](NC(=O)[C@H](Cc1ccccc1)NC(=O)[C@@H](N)CCCN=C(N)N)C(C)(C)S)[C@@H](C)O	2.1
CC(C)C[C@@H](C(=O)N[C@@H](Cc1ccc(O)cc1)C(=O)N1CCC[C@H]1C(=O)N[C@@H](CS)C(N)=O)N(C)C(=O)CN(C)C(=O)CNC(=O)[C@H](Cc1ccccc1)NC(=O)[C@H](Cc1csc[n+]1C)NC(=O)CNC(=O)[C@@H](NC(=O)[C@@H](NC(=O)[C@H](Cc1ccccc1)NC(=O)[C@@H](N)CCCN=C(N)N)C(C)(C)S)[C@@H](C)O	2.4
CC(C)C[C@H](NC(=O)[C@H](Cc1ccc(O)cc1)NC(=O)[C@@H]1CSSC[C@H](NC(=O)[C@H](Cc2ccccc2)NC(=O)[C@H](CO)NC(=O)[C@@H](N)CC(N)=O)C(=O)N[C@@H](CCCN=C(N)N)C(=O)NCC(=O)N[C@@H](CCCN=C(N)N)C(=O)N2CCC[C@H]2C(=O)NCC(=O)N[C@@H](Cc2cnc[nH]2)C(=O)N[C@@H](Cc2ccccc2)C(=O)NCC(=O)NCC(=O)N1)C(=O)N[C@@H](Cc1ccccc1)C(=O)O (H-NSFCRGRPGHFGGCYLF-OH; disulfide 4-14)	33
CC(C)C[C@@H](C(=O)N[C@@H](Cc1ccc(O)cc1)C(=O)N1CCC[C@H]1C(=O)N[C@@H](CS)C(=O)O)N(C)C(=O)CN(C)C(=O)CNC(=O)[C@H](Cc1ccccc1)NC(=O)[C@H](CCCCN)NC(=O)CNC(=O)[C@@H](NC(=O)[C@@H](NC(=O)[C@H](Cc1ccccc1)NC(=O)[C@@H](N)CCCN=C(N)N)C(C)(C)S)[C@@H](C)O	40

As a next step, examine the molecule that follows.
// returns IC50 for CC(C)C[C@@H]1NC(=O)CNC(=O)CNC(=O)[C@H](Cc2ccccc2)NC(=O)[C@H](Cc2cnc[nH]2)NC(=O)CNC(=O)[C@H]([C@@H](C)O)NC(=O)[C@@H](NC(=O)[C@H](Cc2ccccc2)NC(=O)[C@H](CCCN=C(N)N)NC(=O)[C@@H](N)CCC(N)=O)CSSC[C@@H](C(=O)N[C@@H](CC(N)=O)C(=O)NCC(=O)N2CCC[C@H]2C(=O)O)NC(=O)[C@@H]2CCCN2C(=O)[C@H](Cc2ccc(O)cc2)NC1=O with IgG receptor FcRn large subunit p51 (Homo sapiens); value = 36
